- Tested on: RPMI-8226 leukemia
- Protocol description: NCI tumour cell line growth inhibition, 48 h

{"columns": ["Compound", "Bound operator", "TGI, µM"],
 "data": [
  ["CCOC(=O)c1[nH]c(-c2[nH]c(-c3[nH]c(-c4[nH]c(C(=O)OCC)c(C)c4C(=O)OCC)c(C(=O)OCC)c3C)c(C)c2C(=O)OCC)c(C(=O)OCC)c1C", ">", 100],
  ["C#Cc1cccc(N2C(=O)c3c(c(-c4ccccc4)c(-c4ccc(Cc5ccc(-c6c(-c7ccccc7)c7c(c(-c8ccccc8)c6-c6ccccc6)C(=O)N(c6cccc(C#C)c6)C7=O)cc5)cc4)c(-c4ccccc4)c3-c3ccccc3)C2=O)c1", ">", 100],
  ["COc1c(/C=C/C(C)(C)O)cc(C2CC(=O)c3c(O)cc(O)cc3O2)cc1CC=C(C)C (stereo not given)", "=", 28.4],
  ["O=C(O)c1ccc(NCn2nc(-c3ccccc3O)oc2=S)cc1", ">", 100],
  ["COC/C=C\\COC", ">", 100],
  ["COc1ccccc1C#Cc1ccccc1C#CCCCCO", ">", 100],
  ["COc1ccc(-c2ccncc2)cc1C(N)=O", ">", 25],
  ["CCOC(=O)c1cc2cc3c4c(c2oc1=O)CCCN4CCC3", "=", 49.3],
  ["C=CCNc1nc2c(s1)C(=O)c1ccccc1C2=O", "=", 17.4],
  ["NC(=S)/N=C(/c1nc2ccc(Cl)cc2[nH]c1=O)C(O)c1ccccc1Cl (stereo not given)", ">", 100],
  ["CCN1CCC(O)(c2ccc(Oc3ccc(F)cc3)cc2)C(C(=O)c2ccc(Oc3ccc(F)cc3)cc2)C1 (stereo not given)", "=", 8.03],
  ["CN(CCCCCl)P(=O)(OCCS(=O)(=O)CC(NC(=O)CCC(N)C(=O)O)C(=O)NC(C(=O)O)c1ccccc1)OCC1OC(n2ccc(N)nc2=O)C(F)(F)C1O (stereo not given)", ">", 78.1],
  ["CCOC(=O)c1[nH]c(Br)c(-c2ccc(OC)c(OC)c2)c1Br", "=", 16.6],
  ["COc1cc(F)c(F)c(Nc2ccc(I)cc2F)c1NS(=O)(=O)C1(C[C@H](O)CO)CC1", ">", 10],
  ["CC(C)(C)OC(=O)N(CCCCNC(=O)OCc1ccccc1)CCCNC(=O)OCc1ccccc1", ">", 100],
  ["Cc1cnc2sn(-c3ccc([N+](=O)[O-])cc3)c(=O)c2c1", ">", 100],
  ["COc1cc2ncn(-c3cc(OCc4ccccc4C(F)(F)F)c(C(=O)N(C)C)s3)c2cc1OC", ">", 25],
  ["COC(=O)c1cc2c3ccccc3n3c(=O)c4cc5ccc(N(S(=O)(=O)c6ccc(C)cc6)S(=O)(=O)c6ccc(C)cc6)cc5nc4c(n1)c23", ">", 100],
  ["CCC(O)c1ccc(Br)cc1NC(=O)c1cccc(Cl)c1 (stereo not given)", "=", 48.3],
  ["COc1cc2c(c(OC)c1OC)-c1ncc3c(OC)c(OC)c(OC)cc3c1C2", "=", 54.9],
  ["O=C(O)c1ccc(CI)cc1", "=", 45.8],
  ["COc1ccc(NC(=O)CC2SC(=Nc3ccccc3C)NC2=O)c([N+](=O)[O-])c1 (stereo not given)", ">", 100],
  ["CS(=O)(=O)CCNCc1cc(-c2cc3c(Nc4ccc(OCc5cccc(F)c5)c(Cl)c4)ncnc3s2)cs1", "=", 23.2],
  ["COc1ccc(C2OC(=O)c3ccc4ccccc4c32)c(C)c1 (stereo not given)", ">", 65.4],
  ["Cc1ccc(S(=O)(=O)OC2C(O)C(O)OC2C(c2cc(O)c3c(c2O)C(=O)c2ccccc2C3=O)c2cc(O)c3c(c2O)C(=O)c2ccccc2C3=O)cc1 (stereo not given)", "=", 8.67],
  ["COC12CCC(=O)C=C1c1ccccc1N2C(C)=O (stereo not given)", ">", 100],
  ["COc1cc(OC)c(C(=O)/C=C/c2cc3c(cc2OCc2ccccc2)OC(C)(C)CC3)cc1CC=C(C)C", "=", 11.6],
  ["O=[N+]([O-])c1ccc2c(c1)N([O-])C1(CCCCC1)[N+]2=O", "=", 65],
  ["CCN(CC)CCCNc1ccc2nc(C)n3c4ccc(O)cc4c(=O)c1c23", "=", 10.8],
  ["O=C(c1nc2ccc([N+](=O)[O-])cc2[nH]c1=O)C(O)c1ccc2c(c1)OCO2 (stereo not given)", ">", 100],
  ["CN(C(=O)Cc1ccccc1)n1cnn(CC(=O)OC(C)(C)C)c1=S", ">", 10],
  ["CN(C)c1ccc(/C=C2\\N=C(NNc3ccccc3)NC2=O)cc1", "=", 40.1],
  ["[C](#Cc1ccccc1)[Hg][C]#Cc1ccccc1", ">", 100],
  ["Cc1ccc(/C=N/n2c(-c3ccc(C)cc3)n[nH]c2=O)cc1", ">", 100]
]}

src = PubChem BioAssay (NCI)
